Target: human HDAC6 (Homo sapiens)
Construct: Reaction Biology Corporation
Sequence (Q9UBN7 whole entry): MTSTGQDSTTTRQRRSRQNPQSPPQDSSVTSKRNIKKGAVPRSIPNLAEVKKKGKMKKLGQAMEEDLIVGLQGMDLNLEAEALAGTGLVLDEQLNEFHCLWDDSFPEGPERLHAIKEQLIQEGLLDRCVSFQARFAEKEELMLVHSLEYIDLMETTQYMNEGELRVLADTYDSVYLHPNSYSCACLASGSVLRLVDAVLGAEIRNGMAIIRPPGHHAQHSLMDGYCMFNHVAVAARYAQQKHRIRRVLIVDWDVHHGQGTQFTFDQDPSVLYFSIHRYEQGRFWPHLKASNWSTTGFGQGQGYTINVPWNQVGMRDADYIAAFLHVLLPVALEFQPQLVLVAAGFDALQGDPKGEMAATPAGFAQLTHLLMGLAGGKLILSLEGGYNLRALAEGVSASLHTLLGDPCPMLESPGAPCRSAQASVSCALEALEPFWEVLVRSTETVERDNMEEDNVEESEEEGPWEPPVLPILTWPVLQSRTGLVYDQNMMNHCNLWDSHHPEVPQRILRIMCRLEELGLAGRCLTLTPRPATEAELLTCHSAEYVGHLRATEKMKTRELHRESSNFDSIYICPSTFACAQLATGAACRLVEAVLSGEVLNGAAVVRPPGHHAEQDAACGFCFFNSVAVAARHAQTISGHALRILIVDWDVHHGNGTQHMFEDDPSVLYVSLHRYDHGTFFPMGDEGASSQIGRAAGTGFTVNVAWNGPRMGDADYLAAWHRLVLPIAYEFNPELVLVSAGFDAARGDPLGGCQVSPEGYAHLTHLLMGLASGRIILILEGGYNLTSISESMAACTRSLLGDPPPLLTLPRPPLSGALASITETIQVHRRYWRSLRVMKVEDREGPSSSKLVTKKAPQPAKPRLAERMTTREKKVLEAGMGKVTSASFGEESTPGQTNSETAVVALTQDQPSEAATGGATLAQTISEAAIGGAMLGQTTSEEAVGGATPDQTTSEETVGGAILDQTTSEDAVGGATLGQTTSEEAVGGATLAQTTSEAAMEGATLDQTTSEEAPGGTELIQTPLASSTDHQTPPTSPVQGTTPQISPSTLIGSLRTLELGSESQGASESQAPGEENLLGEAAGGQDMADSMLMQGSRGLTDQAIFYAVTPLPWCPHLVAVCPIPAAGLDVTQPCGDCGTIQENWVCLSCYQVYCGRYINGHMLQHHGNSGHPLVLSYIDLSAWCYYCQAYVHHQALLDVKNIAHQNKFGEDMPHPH
Assay: HDAC6 inhibition, fluorogenic peptide substrate (Reaction Biology Corporation)
Assay type: biochemical
observation.type: IC50 (µM)
Entry rule: numbers only, all in µM.

(Q) Report the value of IC50 obtained on human HDAC6 (Homo sapiens) for CN1CCc2c(C(=O)c3ccc(C(=O)NO)cc3)c3ccccc3n2C1 [Example 4] .
(A) 1.49
